ASSAY_EXPLANATION: AUC (0 to infinity) in male Sprague-Dawley rat at 10 mg/kg, po administered as single dose by LC-MS/MS analysis
Type: ADME, organism-based
STATED_CONDITIONS: in vivo
REPORTED_ENDPOINT: AUC(0-inf)

>  <COMPOUND>
COc1cc(C2NCCc3c2[nH]c2ccccc32)ccc1OCc1cc(C(F)(F)F)cc(C(F)(F)F)c1 (stereo unspecified)

>  <REPORTED_ENDPOINT>
AUC(0-inf)

>  <TEST_VALUE>
2110 ng·h/mL

$$$$

----------
EXPERIMENTAL_TARGET: Protein arginine N-methyltransferase 5 (Homo sapiens, UniProt O14744)
Sequence (O14744 whole entry): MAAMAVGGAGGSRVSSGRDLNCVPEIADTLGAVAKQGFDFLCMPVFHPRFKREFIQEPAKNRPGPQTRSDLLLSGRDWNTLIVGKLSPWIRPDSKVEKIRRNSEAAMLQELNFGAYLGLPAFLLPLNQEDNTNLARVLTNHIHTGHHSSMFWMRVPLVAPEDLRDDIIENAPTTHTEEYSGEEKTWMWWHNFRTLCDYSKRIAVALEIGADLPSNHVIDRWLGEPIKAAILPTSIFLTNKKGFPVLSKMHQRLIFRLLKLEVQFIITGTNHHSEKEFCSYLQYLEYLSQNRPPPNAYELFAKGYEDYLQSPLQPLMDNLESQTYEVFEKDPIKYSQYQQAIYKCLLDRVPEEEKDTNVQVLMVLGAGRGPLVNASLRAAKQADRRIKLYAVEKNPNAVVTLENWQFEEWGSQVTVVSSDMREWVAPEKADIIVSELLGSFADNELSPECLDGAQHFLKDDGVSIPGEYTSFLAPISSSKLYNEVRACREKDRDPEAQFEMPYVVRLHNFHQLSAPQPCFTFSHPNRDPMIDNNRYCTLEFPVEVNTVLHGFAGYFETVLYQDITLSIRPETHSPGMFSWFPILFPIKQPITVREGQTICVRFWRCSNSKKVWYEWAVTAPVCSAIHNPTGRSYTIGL
// classify(record): look up IC50 in ranges lo (below 40 µM), med (40 µM to below 70 µM), hi (70 µM or more)

>  <COMPOUND>
COc1cc(COc2ccc(C3NCCc4c3[nH]c3ccccc43)cc2OC)ccc1F (stereo not given)

>  <EXPERIMENTAL_TARGET>
Protein arginine N-methyltransferase 5 (Homo sapiens, UniProt O14744)

>  <LABEL_CLASS>
lo

$$$$
>  <COMPOUND>
Cc1ccccc1C(=O)Nc1ccc(C2NCCc3c2[nH]c2ccccc32)cc1 (stereo not given)

>  <EXPERIMENTAL_TARGET>
Protein arginine N-methyltransferase 5 (Homo sapiens, UniProt O14744)

>  <LABEL_CLASS>
hi

$$$$
>  <COMPOUND>
O=C(Nc1ccc(C2NCCc3c2[nH]c2ccccc32)cc1)c1cccc(C(F)(F)F)c1 (stereo not given)

>  <EXPERIMENTAL_TARGET>
Protein arginine N-methyltransferase 5 (Homo sapiens, UniProt O14744)

>  <LABEL_CLASS>
hi

$$$$
>  <COMPOUND>
O=C(Nc1ccc(C2NCCc3c2[nH]c2ccccc32)cc1)c1ccc(F)cc1 (stereo not given)

>  <EXPERIMENTAL_TARGET>
Protein arginine N-methyltransferase 5 (Homo sapiens, UniProt O14744)

>  <LABEL_CLASS>
hi

$$$$
>  <COMPOUND>
COc1cc(C2NCCc3c2[nH]c2ccccc32)ccc1OCc1ccc(B2OC(C)(C)C(C)(C)O2)cc1 (stereo not given)

>  <EXPERIMENTAL_TARGET>
Protein arginine N-methyltransferase 5 (Homo sapiens, UniProt O14744)

>  <LABEL_CLASS>
hi

$$$$
>  <COMPOUND>
COc1cc(C2NCCc3c2[nH]c2ccccc32)ccc1OCc1ccccc1F (stereo not given)

>  <EXPERIMENTAL_TARGET>
Protein arginine N-methyltransferase 5 (Homo sapiens, UniProt O14744)

>  <LABEL_CLASS>
med

$$$$
>  <COMPOUND>
COc1cc(C2NCCc3c2[nH]c2ccccc32)ccc1OCc1ccc(F)cc1Cl (stereo not given)

>  <EXPERIMENTAL_TARGET>
Protein arginine N-methyltransferase 5 (Homo sapiens, UniProt O14744)

>  <LABEL_CLASS>
hi

$$$$
>  <COMPOUND>
COc1cc(C2NCCc3c2[nH]c2ccccc32)ccc1OCc1ccccc1 (stereo not given)

>  <EXPERIMENTAL_TARGET>
Protein arginine N-methyltransferase 5 (Homo sapiens, UniProt O14744)

>  <LABEL_CLASS>
lo

$$$$
>  <COMPOUND>
O=C(Nc1ccc(C2NCCc3c2[nH]c2ccccc32)cc1)c1cccc([N+](=O)[O-])c1 (stereo not given)

>  <EXPERIMENTAL_TARGET>
Protein arginine N-methyltransferase 5 (Homo sapiens, UniProt O14744)

>  <LABEL_CLASS>
hi

$$$$
>  <COMPOUND>
Cc1cccc(C(=O)Nc2ccc(C3NCCc4c3[nH]c3ccccc43)cc2)c1 (stereo not given)

>  <EXPERIMENTAL_TARGET>
Protein arginine N-methyltransferase 5 (Homo sapiens, UniProt O14744)

>  <LABEL_CLASS>
hi

$$$$
>  <COMPOUND>
O=C(Nc1ccc(C2NCCc3c2[nH]c2ccccc32)cc1)c1ccc(Br)cc1 (stereo not given)

>  <EXPERIMENTAL_TARGET>
Protein arginine N-methyltransferase 5 (Homo sapiens, UniProt O14744)

>  <LABEL_CLASS>
hi

$$$$
>  <COMPOUND>
COc1cc(C2NCCc3c2[nH]c2ccccc32)ccc1OCc1ccc(C(C)(C)C)cc1 (stereo not given)

>  <EXPERIMENTAL_TARGET>
Protein arginine N-methyltransferase 5 (Homo sapiens, UniProt O14744)

>  <LABEL_CLASS>
med

$$$$
>  <COMPOUND>
COc1cc(C2NCCc3c2[nH]c2ccccc32)ccc1OCc1cc(C(F)(F)F)cc(C(F)(F)F)c1 (stereo not given)

>  <EXPERIMENTAL_TARGET>
Protein arginine N-methyltransferase 5 (Homo sapiens, UniProt O14744)

>  <LABEL_CLASS>
lo

$$$$
>  <COMPOUND>
O=C(Nc1ccc(C2NCCc3c2[nH]c2ccccc32)cc1)c1ccc(F)c(C(F)(F)F)c1 (stereo not given)

>  <EXPERIMENTAL_TARGET>
Protein arginine N-methyltransferase 5 (Homo sapiens, UniProt O14744)

>  <LABEL_CLASS>
med

$$$$

----------
ASSAY_EXPLANATION: Volume of distribution in male Sprague-Dawley rat at 2 mg/kg, iv administered via tail vein by LC-MS/MS analysis
Type: ADME, organism-based
STATED_CONDITIONS: in vivo
REPORTED_ENDPOINT: Vd (L/kg)

>  <MOLECULE>
COc1cc(C2NCCc3c2[nH]c2ccccc32)ccc1OCc1cc(C(F)(F)F)cc(C(F)(F)F)c1 (stereo unspecified)

>  <TEST_VALUE>
10.8

$$$$

----------
ASSAY_EXPLANATION: Cmax in male Sprague-Dawley rat at 10 mg/kg, po administered as single dose by LC-MS/MS analysis
Type: ADME, organism-based
STATED_CONDITIONS: in vivo
REPORTED_ENDPOINT: Cmax (ng/mL)

>  <MOLECULE>
COc1cc(C2NCCc3c2[nH]c2ccccc32)ccc1OCc1cc(C(F)(F)F)cc(C(F)(F)F)c1 (stereo unspecified)

>  <TEST_VALUE>
167

$$$$

----------
ASSAY_EXPLANATION: AUC (0 to infinity) in male Sprague-Dawley rat at 2 mg/kg, iv administered via tail vein by LC-MS/MS analysis
Format: ADME, organism-based
STATED_CONDITIONS: in vivo
REPORTED_ENDPOINT: AUC(0-inf) (ng·h/mL)

>  <COMPOUND>
COc1cc(C2NCCc3c2[nH]c2ccccc32)ccc1OCc1cc(C(F)(F)F)cc(C(F)(F)F)c1 (stereo unspecified)

>  <TEST_VALUE>
1330

$$$$

----------
ASSAY_EXPLANATION: Tmax in male Sprague-Dawley rat at 10 mg/kg, po administered as single dose by LC-MS/MS analysis
Assay type: ADME, organism-based
STATED_CONDITIONS: in vivo

>  <COMPOUND>
COc1cc(C2NCCc3c2[nH]c2ccccc32)ccc1OCc1cc(C(F)(F)F)cc(C(F)(F)F)c1 (stereo unspecified)

>  <Tmax, h>
2

$$$$

----------
ASSAY_EXPLANATION: Metabolic stability in rat liver microsomes assessed as compound remaining at […] measured after 30 mins in presence of NADPH by LC-MS/MS analysis
Format: ADME, Microsome
STATED_CONDITIONS: read-out: Stability
remaining at 0.5 h vs 40%: less than gives Condition met; not less than gives Condition not met.

>  <COMPOUND>
COc1cc(C2NCCc3c2[nH]c2ccccc32)ccc1OC(=O)c1ccccc1 (centres undefined)

>  <LABEL_CLASS>
Condition met

$$$$
>  <COMPOUND>
COc1cc(C2NCCc3c2[nH]c2ccccc32)ccc1OCc1ccc(F)cc1Br (centres undefined)

>  <LABEL_CLASS>
Condition not met

$$$$
>  <COMPOUND>
COc1cc(C2NCCc3c2[nH]c2ccccc32)ccc1OCc1ccc(C(C)(C)C)cc1 (centres undefined)

>  <LABEL_CLASS>
Condition not met

$$$$
>  <COMPOUND>
COc1cc(C2NCCc3c2[nH]c2ccccc32)ccc1OCc1ccc(OC(F)(F)F)c(Cl)c1 (centres undefined)

>  <LABEL_CLASS>
Condition not met

$$$$
>  <COMPOUND>
COc1cc(C2NCCc3c2[nH]c2ccccc32)ccc1OCc1cc(C(F)(F)F)cc(C(F)(F)F)c1 (centres undefined)

>  <LABEL_CLASS>
Condition not met

$$$$
>  <COMPOUND>
O=C(Oc1ccc(C2NCCc3c2[nH]c2ccccc32)cc1)c1ccccc1 (centres undefined)

>  <LABEL_CLASS>
Condition met

$$$$
>  <COMPOUND>
COC(=O)c1ccc(COc2ccc(C3NCCc4c3[nH]c3ccccc43)cc2OC)cc1 (centres undefined)

>  <LABEL_CLASS>
Condition met

$$$$
>  <COMPOUND>
COc1cc(C2NCCc3c2[nH]c2ccccc32)ccc1OCc1ccc(F)c(Br)c1 (centres undefined)

>  <LABEL_CLASS>
Condition not met

$$$$
>  <COMPOUND>
COc1cc(C2NCCc3c2[nH]c2ccccc32)ccc1OCc1ccc(C#N)cc1F (centres undefined)

>  <LABEL_CLASS>
Condition met

$$$$

Value source: ChEMBL document CHEMBL5506008
